tested on: MDA-MB-468; assay: Cytotoxicity against human MDA-MB-468 cells after 48 hrs by SRB assay; assay type: functional; details: MDA-MB-468, 48 h
The label is satisfied for GI50 below 1 µM and not satisfied for GI50 equal to or exceeding 1 µM.

[
  {
    "compound": "CC(=O)N1N=C(c2ccc(Nc3ccnc4cc(Cl)ccc34)cc2)CC1c1ccc(Cl)cc1 (stereo unspecified)",
    "assayedSystem": "MDA-MB-468",
    "assignedClass": "not satisfied"
  },
  {
    "compound": "O=CN1N=C(c2ccc(Nc3ccnc4cc(Cl)ccc34)cc2)CC1c1ccc(Cl)cc1 (stereo unspecified)",
    "assayedSystem": "MDA-MB-468",
    "assignedClass": "satisfied"
  },
  {
    "compound": "COc1cccc2c1C(=O)c1c(O)c3c(c(O)c1C2=O)C[C@@](O)(C(=O)CO)C[C@@H]3O[C@H]1C[C@H](N)[C@H](O)[C@H](C)O1",
    "assayedSystem": "MDA-MB-468",
    "assignedClass": "satisfied"
  },
  {
    "compound": "O=CN1N=C(c2cccc(Nc3ccnc4cc(Cl)ccc34)c2)CC1c1ccc(Cl)cc1 (stereo unspecified)",
    "assayedSystem": "MDA-MB-468",
    "assignedClass": "satisfied"
  },
  {
    "compound": "COc1cc(C2CC(c3cccc(Nc4ccnc5cc(Cl)ccc45)c3)=NN2C=O)cc(OC)c1OC (stereo unspecified)",
    "assayedSystem": "MDA-MB-468",
    "assignedClass": "satisfied"
  },
  {
    "compound": "COc1cc(C2CC(c3ccc(Nc4ccnc5cc(Cl)ccc45)cc3)=NN2C=O)cc(OC)c1OC (stereo unspecified)",
    "assayedSystem": "MDA-MB-468",
    "assignedClass": "not satisfied"
  },
  {
    "compound": "Cc1ccc(C2CC(c3ccc(Nc4ccnc5cc(Cl)ccc45)cc3)=NN2C=O)cc1 (stereo unspecified)",
    "assayedSystem": "MDA-MB-468",
    "assignedClass": "not satisfied"
  },
  {
    "compound": "COc1ccc(C2CC(c3cccc(Nc4ccnc5cc(Cl)ccc45)c3)=NN2C=O)cc1 (stereo unspecified)",
    "assayedSystem": "MDA-MB-468",
    "assignedClass": "satisfied"
  },
  {
    "compound": "O=CN1N=C(c2cccc(Nc3ccnc4cc(Cl)ccc34)c2)CC1c1ccccc1 (stereo unspecified)",
    "assayedSystem": "MDA-MB-468",
    "assignedClass": "satisfied"
  }
]

---

tested on: HL-60(TB); test: Cytotoxicity against human HL-60(TB) cells after 48 hrs by SRB assay; format: functional; details: HL-60, 48 h, read-out: LC50 (the source's name)
Listed below: CC50 values for each entry.

[
  {
    "compound": "COc1cc(C2CC(c3cccc(Nc4ccnc5cc(Cl)ccc45)c3)=NN2C=O)cc(OC)c1OC (stereo not given)",
    "censoringSign": "=",
    "CC50, µM": 3.97
  },
  {
    "compound": "O=CN1N=C(c2cccc(Nc3ccnc4cc(Cl)ccc34)c2)CC1c1ccccc1 (stereo not given)",
    "censoringSign": "=",
    "CC50, µM": 4.56
  },
  {
    "compound": "O=CN1N=C(c2ccc(Nc3ccnc4cc(Cl)ccc34)cc2)CC1c1ccc(Cl)cc1 (stereo not given)",
    "censoringSign": ">",
    "CC50, µM": 100
  },
  {
    "compound": "CC(=O)N1N=C(c2ccc(Nc3ccnc4cc(Cl)ccc34)cc2)CC1c1ccc(Cl)cc1 (stereo not given)",
    "censoringSign": ">",
    "CC50, µM": 100
  },
  {
    "compound": "O=CN1N=C(c2ccc(Nc3ccnc4cc(Cl)ccc34)cc2)CC1c1ccccc1 (stereo not given)",
    "censoringSign": "=",
    "CC50, µM": 72.5
  }
]

---

system: ACHN; experiment: Cytotoxicity against human ACHN cells after 48 hrs by SRB assay; assay type: functional
# if measured GI50 < 4000 nM: 1  # else: -1

[
  {
    "compound": "COc1ccc(C2CC(c3cccc(Nc4ccnc5cc(Cl)ccc45)c3)=NN2C=O)cc1 (stereo unspecified)",
    "assignedClass": 1
  },
  {
    "compound": "O=CN1N=C(c2ccc(Nc3ccnc4cc(Cl)ccc34)cc2)CC1c1ccc(Cl)cc1 (stereo unspecified)",
    "assignedClass": 1
  },
  {
    "compound": "O=CN1N=C(c2cccc(Nc3ccnc4cc(Cl)ccc34)c2)CC1c1ccc(Cl)cc1 (stereo unspecified)",
    "assignedClass": -1
  },
  {
    "compound": "COc1cccc2c1C(=O)c1c(O)c3c(c(O)c1C2=O)C[C@@](O)(C(=O)CO)C[C@@H]3O[C@H]1C[C@H](N)[C@H](O)[C@H](C)O1",
    "assignedClass": 1
  },
  {
    "compound": "COc1ccc(C2CC(c3ccc(Nc4ccnc5cc(Cl)ccc45)cc3)=NN2C=O)cc1 (stereo unspecified)",
    "assignedClass": -1
  }
]

---

system: UACC-62; experiment: Cytotoxicity against human UACC62 cells after 48 hrs by SRB assay; assay type: functional; details: UACC-62, 48 h, read-out: LC50 (the source's name)
The following compounds are listed with their measured CC50 values.

[
  {
    "compound": "COc1cc(C2CC(c3ccc(Nc4ccnc5cc(Cl)ccc45)cc3)=NN2C=O)cc(OC)c1OC (stereo unspecified)",
    "CC50": "59.3 µM"
  },
  {
    "compound": "COc1cccc2c1C(=O)c1c(O)c3c(c(O)c1C2=O)C[C@@](O)(C(=O)CO)C[C@@H]3O[C@H]1C[C@H](N)[C@H](O)[C@H](C)O1 [DOXORUBICIN]",
    "CC50": "0.74 µM"
  },
  {
    "compound": "O=CN1N=C(c2ccc(Nc3ccnc4cc(Cl)ccc34)cc2)CC1c1ccc(Cl)cc1 (stereo unspecified)",
    "CC50": "> 100 µM"
  },
  {
    "compound": "O=CN1N=C(c2ccc(Nc3ccnc4cc(Cl)ccc34)cc2)CC1c1ccccc1 (stereo unspecified)",
    "CC50": "17.4 µM"
  },
  {
    "compound": "O=CN1N=C(c2cccc(Nc3ccnc4cc(Cl)ccc34)c2)CC1c1ccc(Cl)cc1 (stereo unspecified)",
    "CC50": "> 100 µM"
  },
  {
    "compound": "COc1ccc(C2CC(c3ccc(Nc4ccnc5cc(Cl)ccc45)cc3)=NN2C=O)cc1 (stereo unspecified)",
    "CC50": "> 100 µM"
  },
  {
    "compound": "Cc1ccc(C2CC(c3ccc(Nc4ccnc5cc(Cl)ccc45)cc3)=NN2C=O)cc1 (stereo unspecified)",
    "CC50": "> 100 µM"
  },
  {
    "compound": "COc1ccc(C2CC(c3cccc(Nc4ccnc5cc(Cl)ccc45)c3)=NN2C=O)cc1 (stereo unspecified)",
    "CC50": "> 100 µM"
  },
  {
    "compound": "O=CN1N=C(c2cccc(Nc3ccnc4cc(Cl)ccc34)c2)CC1c1ccccc1 (stereo unspecified)",
    "CC50": "> 100 µM"
  },
  {
    "compound": "COc1cc(C2CC(c3cccc(Nc4ccnc5cc(Cl)ccc45)c3)=NN2C=O)cc(OC)c1OC (stereo unspecified)",
    "CC50": "84 µM"
  },
  {
    "compound": "CC(=O)N1N=C(c2ccc(Nc3ccnc4cc(Cl)ccc34)cc2)CC1c1ccc(Cl)cc1 (stereo unspecified)",
    "CC50": "> 100 µM"
  }
]

---

test system: ACHN; experiment: Cytotoxicity against human ACHN cells after 48 hrs by SRB assay; assay type: functional

[
  {
    "compound": "O=CN1N=C(c2cccc(Nc3ccnc4cc(Cl)ccc34)c2)CC1c1ccccc1 (stereo not given)",
    "GI50 / µM": 0.86
  },
  {
    "compound": "Cc1ccc(C2CC(c3ccc(Nc4ccnc5cc(Cl)ccc45)cc3)=NN2C=O)cc1 (stereo not given)",
    "GI50 / µM": 3.27
  },
  {
    "compound": "COc1cc(C2CC(c3cccc(Nc4ccnc5cc(Cl)ccc45)c3)=NN2C=O)cc(OC)c1OC (stereo not given)",
    "GI50 / µM": 1.27
  },
  {
    "compound": "O=CN1N=C(c2ccc(Nc3ccnc4cc(Cl)ccc34)cc2)CC1c1ccccc1 (stereo not given)",
    "GI50 / µM": 4.21
  },
  {
    "compound": "COc1cc(C2CC(c3ccc(Nc4ccnc5cc(Cl)ccc45)cc3)=NN2C=O)cc(OC)c1OC (stereo not given)",
    "GI50 / µM": 3.24
  }
]

---

system: HOP-92; assay: Cytotoxicity against human HOP92 cells after 48 hrs by SRB assay; format: functional; settings: HOP-92, 48 h

[
  {
    "compound": "O=CN1N=C(c2ccc(Nc3ccnc4cc(Cl)ccc34)cc2)CC1c1ccc(Cl)cc1 (stereo not given)",
    "assayedSystem": "HOP-92",
    "unit": "nM",
    "censoringSign": ">",
    "GI50": 100000
  },
  {
    "compound": "CC(=O)N1N=C(c2ccc(Nc3ccnc4cc(Cl)ccc34)cc2)CC1c1ccc(Cl)cc1 (stereo not given)",
    "assayedSystem": "HOP-92",
    "unit": "nM",
    "censoringSign": ">",
    "GI50": 100000
  },
  {
    "compound": "COc1ccc(C2CC(c3cccc(Nc4ccnc5cc(Cl)ccc45)c3)=NN2C=O)cc1 (stereo not given)",
    "assayedSystem": "HOP-92",
    "unit": "nM",
    "censoringSign": ">",
    "GI50": 100000
  },
  {
    "compound": "COc1cccc2c1C(=O)c1c(O)c3c(c(O)c1C2=O)C[C@@](O)(C(=O)CO)C[C@@H]3O[C@H]1C[C@H](N)[C@H](O)[C@H](C)O1",
    "assayedSystem": "HOP-92",
    "unit": "nM",
    "censoringSign": "=",
    "GI50": 100
  },
  {
    "compound": "COc1cc(C2CC(c3ccc(Nc4ccnc5cc(Cl)ccc45)cc3)=NN2C=O)cc(OC)c1OC (stereo not given)",
    "assayedSystem": "HOP-92",
    "unit": "nM",
    "censoringSign": "=",
    "GI50": 1830
  },
  {
    "compound": "O=CN1N=C(c2ccc(Nc3ccnc4cc(Cl)ccc34)cc2)CC1c1ccccc1 (stereo not given)",
    "assayedSystem": "HOP-92",
    "unit": "nM",
    "censoringSign": "=",
    "GI50": 4280
  },
  {
    "compound": "Cc1ccc(C2CC(c3ccc(Nc4ccnc5cc(Cl)ccc45)cc3)=NN2C=O)cc1 (stereo not given)",
    "assayedSystem": "HOP-92",
    "unit": "nM",
    "censoringSign": "=",
    "GI50": 2140
  },
  {
    "compound": "O=CN1N=C(c2cccc(Nc3ccnc4cc(Cl)ccc34)c2)CC1c1ccccc1 (stereo not given)",
    "assayedSystem": "HOP-92",
    "unit": "nM",
    "censoringSign": "=",
    "GI50": 210
  },
  {
    "compound": "O=CN1N=C(c2cccc(Nc3ccnc4cc(Cl)ccc34)c2)CC1c1ccc(Cl)cc1 (stereo not given)",
    "assayedSystem": "HOP-92",
    "unit": "nM",
    "censoringSign": "=",
    "GI50": 650
  },
  {
    "compound": "COc1cc(C2CC(c3cccc(Nc4ccnc5cc(Cl)ccc45)c3)=NN2C=O)cc(OC)c1OC (stereo not given)",
    "assayedSystem": "HOP-92",
    "unit": "nM",
    "censoringSign": "=",
    "GI50": 2750
  }
]
